Cited source: patent US9517232B2

# TESTED_ON: M2 (Homo sapiens)
# Sequence (P08172 1-466): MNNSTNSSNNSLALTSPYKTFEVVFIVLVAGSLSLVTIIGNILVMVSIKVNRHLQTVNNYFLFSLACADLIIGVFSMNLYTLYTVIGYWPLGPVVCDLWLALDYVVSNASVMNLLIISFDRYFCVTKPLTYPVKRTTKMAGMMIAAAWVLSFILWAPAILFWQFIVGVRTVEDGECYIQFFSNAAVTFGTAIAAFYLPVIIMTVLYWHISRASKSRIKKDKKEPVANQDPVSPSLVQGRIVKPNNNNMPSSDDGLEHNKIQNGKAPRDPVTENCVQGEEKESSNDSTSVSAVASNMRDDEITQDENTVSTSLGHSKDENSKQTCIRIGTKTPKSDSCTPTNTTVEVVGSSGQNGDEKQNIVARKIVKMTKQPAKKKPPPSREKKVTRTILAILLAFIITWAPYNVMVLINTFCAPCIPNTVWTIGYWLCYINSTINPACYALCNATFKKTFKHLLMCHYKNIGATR
# ASSAY_DETAILS: Muscarinic M2 receptor Ki determination (NIMH PDSP)
# Type: binding
# Procedure: The compounds from the above Examples were tested for Sigma-1 and muscarinic M1-M5) activities. Ki determinations were generously provided by the National Institute of Mental Health's Psychoactive Drug Screening Program (PDSP), Contract #HHSN-271-2013-00017-C (NIMH PDSP). The NIMH PDSP is directed by Bryan L. Roth M D, PhD at the University of North Carolina at Chapel Hill and Project Officer Jamie Driscoll at NIMH, Bethesda Md., USA. […]
pKi: −log10 of the molar value.

[
  {
    "COMPOUND": "CN(CCCC1(c2ccc(F)cc2)OCc2cc(C#N)ccc21)C1=NCCCC1 (stereo not shown) [Example 3]",
    "TESTED_ON": "M2 (Homo sapiens)",
    "pKi": 5.59
  }
]

* * *

# TESTED_ON: Sigma1 (Homo sapiens)
# Sequence (Q99720 whole entry): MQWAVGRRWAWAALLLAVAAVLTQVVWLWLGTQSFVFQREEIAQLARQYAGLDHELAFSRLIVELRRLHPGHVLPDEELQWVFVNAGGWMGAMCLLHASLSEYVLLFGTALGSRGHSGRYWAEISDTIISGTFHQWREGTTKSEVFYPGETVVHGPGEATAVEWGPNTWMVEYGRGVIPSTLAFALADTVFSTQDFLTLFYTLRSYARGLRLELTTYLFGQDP
# ASSAY_DETAILS: Sigma-1 receptor Ki determination (NIMH PDSP)
# Type: binding

[
  {
    "COMPOUND": "CN(CCCC1(c2ccc(F)cc2)OCc2cc(C#N)ccc21)C1=NCCCC1 (stereo not shown) [Example 3]",
    "TESTED_ON": "Sigma1 (Homo sapiens)",
    "READING_UNIT": "nM",
    "Ki": 230
  }
]

* * *

# TESTED_ON: M5 (Homo sapiens, UniProt P08912)
# Sequence (P08912 1-532): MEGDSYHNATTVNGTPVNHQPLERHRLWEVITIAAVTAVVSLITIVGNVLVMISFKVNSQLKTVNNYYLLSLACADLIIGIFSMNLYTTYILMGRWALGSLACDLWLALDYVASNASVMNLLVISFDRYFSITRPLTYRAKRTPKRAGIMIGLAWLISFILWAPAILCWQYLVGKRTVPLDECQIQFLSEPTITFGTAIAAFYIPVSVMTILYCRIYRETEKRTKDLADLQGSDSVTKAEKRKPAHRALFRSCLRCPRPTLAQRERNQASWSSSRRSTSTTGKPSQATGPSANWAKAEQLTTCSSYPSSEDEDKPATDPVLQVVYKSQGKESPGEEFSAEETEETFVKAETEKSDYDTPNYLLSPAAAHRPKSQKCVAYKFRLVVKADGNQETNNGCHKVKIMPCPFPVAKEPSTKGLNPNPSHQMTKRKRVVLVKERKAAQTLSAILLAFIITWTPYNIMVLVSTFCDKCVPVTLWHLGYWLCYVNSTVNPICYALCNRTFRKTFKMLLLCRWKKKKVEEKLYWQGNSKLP
pKi: −log10 of the molar value.
PROPERTY_NAME: pKi

[
  {
    "COMPOUND": "CN(CCCC1(c2ccc(F)cc2)OCc2cc(C#N)ccc21)C1=NCCCC1 (stereo not shown) [Example 3]",
    "PROPERTY_NAME": "pKi",
    "RECORDED_RESULT": 5.93
  }
]
